Reference source for all entries: patent US11072601B2

# Experiment description: Pharmacokinetic test in rats, intravenous
# Format: in vivo
# Reported conditions: male, SD, rat, plasma, intravenous 1 mg/kg, read-out: plasma concentration (Cmax)
# Source text: 8-week-old male SD rats weighing 200-300 g were used as experimental animals, and LC/MS/MS method was used to determine the drug concentration in plasma at different times after the administration of the compound of Example H01, the compound of Example H04, the compound of Example H05, the compound of Example H07, the compound of Example H16, the compound of Example H17, the compound of Example H18, the compound of Example H21, and the compound of Example H24. […]
Quantity: Cmax (ng/mL)
Note: unit ng/mL is implicit; provide only the numeric part.

In the examples that follow, each entry is paired with its recorded Cmax.
> print(dat)
                                   compound  quantity  numeric.result
1  Cc1c(Cl)cccc1CNCCC1(c2ccccn2)CCOC2(CCCC2)C1 (stereo not drawn) [Example H04]      Cmax             378
2  FC(F)(F)Oc1ccc(Cl)cc1CNCCC1(c2ccccn2)CCOC2(CCCC2)C1 (stereo not drawn) [Example H17]      Cmax             388
3  FC(F)Oc1ccccc1CNCCC1(c2ccccn2)CCOC2(CCCC2)C1 (stereo not drawn) [Example H16]      Cmax             820
4  CNc1ccsc1C(=O)NCCC1(c2ccccn2)CCOC2(CCCC2)C1 (stereo not drawn) [Example H24]      Cmax             583
5  Fc1ccc(C2(CCNCc3ccccc3OC(F)(F)F)CCOC3(CCCC3)C2)nc1 (stereo not drawn) [Example H21]      Cmax             283

Now consider the entry below.
Request: Quick one: Cmax of FC(F)Oc1ccsc1CNCCC1(c2ccccn2)CCOC2(CCCC2)C1 (stereo not drawn) [Example H18] ?
Result: 483
